FYI, the data here is from patent US20190127480A1.

Give measured koff for each item. Keep answers brief.
Target: T1, Soluble heterodimeric CD3 protein (hCD3-epsilon/hCD3-delta) with either a human Fc tag (hFcΔAdp/hFc) or a … (human, UniProt P07766 23-126; P04234 22-105)
T1 construct: also called hCD3ε/δ; not shown: Fc tag: human (hFcΔAdp/hFc)
T1 sequence (P07766 23-126 limits assumed, stated change not applied, chain 1 of 2): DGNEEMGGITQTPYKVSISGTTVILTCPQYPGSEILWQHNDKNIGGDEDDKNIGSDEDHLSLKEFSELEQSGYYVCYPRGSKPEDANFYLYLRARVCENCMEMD
T1 sequence (P04234 22-105 limits assumed, stated change not applied, chain 2 of 2): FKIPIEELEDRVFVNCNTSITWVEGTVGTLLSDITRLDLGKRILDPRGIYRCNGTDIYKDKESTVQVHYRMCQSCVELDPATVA
Assay: SPR Biacore 25C antibody-capture
# number only, unit s⁻¹ dropped from output

Give its koff value. Item: H1H5780P (antibody, human IgG1, V domains shown, H1H: human IgG1 Fc; divalent) VH: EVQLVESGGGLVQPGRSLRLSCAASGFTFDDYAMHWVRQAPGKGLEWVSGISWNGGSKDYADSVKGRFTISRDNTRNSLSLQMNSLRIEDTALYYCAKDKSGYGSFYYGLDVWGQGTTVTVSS VL: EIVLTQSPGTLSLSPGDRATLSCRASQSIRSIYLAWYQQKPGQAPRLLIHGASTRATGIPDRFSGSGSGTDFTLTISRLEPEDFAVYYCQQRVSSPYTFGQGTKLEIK
0.000399

Give its koff value. Item: H1H5786B (antibody, human IgG1, V domains shown, H1H: human IgG1 Fc; divalent) VH: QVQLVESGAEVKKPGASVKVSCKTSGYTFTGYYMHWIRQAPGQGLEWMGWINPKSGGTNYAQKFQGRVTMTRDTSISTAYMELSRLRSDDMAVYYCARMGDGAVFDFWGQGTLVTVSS VL: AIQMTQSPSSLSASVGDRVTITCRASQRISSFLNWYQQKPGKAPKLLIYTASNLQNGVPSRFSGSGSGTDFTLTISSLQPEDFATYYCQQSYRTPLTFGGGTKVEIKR
0.00108

Give its koff value. Item: H1H5788P (antibody, V domains shown, H1H: human IgG1 Fc; divalent) VH: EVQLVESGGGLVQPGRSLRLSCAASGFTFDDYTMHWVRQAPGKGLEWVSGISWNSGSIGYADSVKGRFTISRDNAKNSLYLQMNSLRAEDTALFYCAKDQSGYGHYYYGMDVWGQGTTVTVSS VL: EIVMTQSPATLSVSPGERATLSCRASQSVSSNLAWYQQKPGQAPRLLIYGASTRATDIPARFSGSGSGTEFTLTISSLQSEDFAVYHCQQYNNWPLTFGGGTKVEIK
0.000291

Give its koff value. Item: H1H5781P (antibody, human IgG1, V domains shown, H1H: human IgG1 Fc; divalent) VH: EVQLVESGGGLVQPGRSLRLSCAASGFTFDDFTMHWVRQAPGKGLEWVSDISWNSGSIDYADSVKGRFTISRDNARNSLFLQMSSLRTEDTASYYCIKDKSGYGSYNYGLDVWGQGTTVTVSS VL: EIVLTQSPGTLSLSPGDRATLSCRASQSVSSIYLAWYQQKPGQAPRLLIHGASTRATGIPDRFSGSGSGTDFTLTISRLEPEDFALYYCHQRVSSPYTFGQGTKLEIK
0.000497

Give its koff value. Item: H1H5756B (antibody, human IgG1, V domains shown, H1H: human IgG1 Fc; divalent) VH: EVQLVESGGGVVQPGRSLRLSCTASGFPFSRYGMHWVRQAPGKGLEWVTFIWYDGSNKYYADSAKGRFTITRDNSKNTVYLQMDSLRADDTAVYYCVRDQAALYYFDSWGQGTLVTVSS VL: DIQMTQSPSSVSASVGDRVTITCRASQGISRWLAWYQQKPGKAPKLLISAASSLQSGVPSRFSGSGSGTDFTLTISGLQPEDFATYYCQKANSFPFTFGPGTKLEIKR
0.000266
